Hello, the source for this data is patent US20240299382A1, in case you need it.

Assay: PK parameters after oral dosing in mice
Conditions: 80 mg/kg orally, plasma
PARAMETER: Cmax (µM)

COMPOUND: CCCCNNC(=O)c1ccc(Br)cc1
PARAMETER: Cmax
MEASURED NUMBER: 5.95

###

Molecular target: LSD1 (Homo sapiens, UniProt O60341)
Construct: Cells were then lysed and subjected to Western blotting with antibodies against the indicated proteins; endogenous in cells; host or cells: MCF7
Test: Western blotting of protein levels in MCF7 cells
Assay type: cell-based
Conditions: MCF7 cells, 10 μM, 6 hours, Western blotting
PARAMETER: degradation of LSD1

COMPOUND: CCCCNNC(=O)c1ccc(-c2cc(C)cc(F)c2)cc1
RESULT: can degrade
//
COMPOUND: CCCCNNC(=O)c1ccc(-c2ccccc2)cc1
RESULT: can degrade
//
COMPOUND: CCCCNNC(=O)c1ccc(-c2cccc(F)c2F)cc1
RESULT: can degrade
//
COMPOUND: CCCCNNC(=O)c1ccc(-c2cncnc2)cc1
RESULT: can degrade

###

Target: RCOR1 (Homo sapiens, UniProt Q9UKL0)
Construct: Cells were then lysed and subjected to Western blotting with antibodies against the indicated proteins; endogenous in cells; host or cells: MCF7
Sequence (Q9UKL0 whole entry): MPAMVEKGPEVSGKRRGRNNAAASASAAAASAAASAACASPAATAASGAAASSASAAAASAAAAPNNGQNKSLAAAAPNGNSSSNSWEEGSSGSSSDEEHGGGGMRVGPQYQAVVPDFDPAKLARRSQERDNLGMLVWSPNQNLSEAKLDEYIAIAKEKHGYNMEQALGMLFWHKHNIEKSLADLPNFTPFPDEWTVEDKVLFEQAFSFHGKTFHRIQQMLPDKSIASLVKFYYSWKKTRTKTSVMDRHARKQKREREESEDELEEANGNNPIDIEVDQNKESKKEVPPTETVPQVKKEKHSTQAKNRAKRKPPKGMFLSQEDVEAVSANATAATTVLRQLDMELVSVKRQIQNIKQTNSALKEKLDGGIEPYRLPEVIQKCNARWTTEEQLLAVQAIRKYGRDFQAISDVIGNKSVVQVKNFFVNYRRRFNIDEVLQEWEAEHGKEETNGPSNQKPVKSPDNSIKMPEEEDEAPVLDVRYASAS
Test: Western blotting of protein levels in MCF7 cells
Assay type: cell-based
Details: MCF7 cells, indicated concentrations, 14 hours
PARAMETER: RCOR1 protein level

COMPOUND: O=C(/C=C/c1cccc(S(=O)(=O)Nc2ccccc2)c1)NO [belinostat, reference compound]
RESULT: notably increased
--
COMPOUND: Nc1ccccc1NC(=O)c1ccc(CNC(=O)OCc2cccnc2)cc1 [entinostat, reference compound]
RESULT: notably increased
--
COMPOUND: O=C(CCCCCCC(=O)Nc1ccccc1)NO [vorinostat, reference compound]
RESULT: notably increased
